Target: T1, MsmTOP1-701t (D1-D5) (Mycobacterium smegmatis mc2 155, UniProt A0R5D9 1-701)
T1 sequence: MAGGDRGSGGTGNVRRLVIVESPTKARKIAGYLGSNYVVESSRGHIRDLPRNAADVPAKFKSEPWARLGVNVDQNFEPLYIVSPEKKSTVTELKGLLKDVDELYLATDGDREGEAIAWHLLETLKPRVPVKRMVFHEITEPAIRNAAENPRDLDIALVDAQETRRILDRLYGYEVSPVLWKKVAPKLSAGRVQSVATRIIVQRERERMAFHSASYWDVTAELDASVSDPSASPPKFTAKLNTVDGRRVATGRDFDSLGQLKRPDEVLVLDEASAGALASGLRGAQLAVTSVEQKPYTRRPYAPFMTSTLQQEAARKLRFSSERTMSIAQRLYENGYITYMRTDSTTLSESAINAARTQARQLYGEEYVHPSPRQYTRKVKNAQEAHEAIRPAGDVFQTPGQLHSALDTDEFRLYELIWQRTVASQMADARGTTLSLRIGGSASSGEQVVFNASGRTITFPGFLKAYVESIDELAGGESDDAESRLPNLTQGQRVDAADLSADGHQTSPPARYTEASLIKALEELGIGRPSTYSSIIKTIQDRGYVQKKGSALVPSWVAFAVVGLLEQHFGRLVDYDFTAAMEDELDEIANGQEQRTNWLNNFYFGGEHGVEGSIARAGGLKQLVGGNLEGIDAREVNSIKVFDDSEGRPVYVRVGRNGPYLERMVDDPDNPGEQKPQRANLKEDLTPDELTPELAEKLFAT
Assay: fluorescence anisotropy; no Mg2+, 0.1 mM EDTA; Anisotropy: 50 mM Tris-HCl pH 7.5, 100 mM NaCl, 0.1 mM EDTA, room temperature; crystal: 0.1 M Tris-HCl pH 8.5, 1.5 M lithium sulfate, 16 C, protein:ssDNA 1:2
Conditions: protein: recombinant; tags: His6-Mocr removed by TEV (N-terminal SNA left); label: 3' 6-carboxyfluorescein; single strand
Measured metric: Kd
Could you write the number and then its unit?

(Q) Given the entry CAGTGAGCGAGCTTCCGCTTGACATCCCAATA (ssDNA) [STS32] , report its measured Kd.
(A) 14.9 nM

Cited source: paper PMC7192597
